For reference, pIC50 measured on Cholinesterase (Homo sapiens):
Please treat pIC50 as minus the base-10 logarithm of the molar concentration.

For orientation, consider the following solved cases.
[
  {
    "molecule": "COc1cccc(C(=O)Cc2ncc(C(=O)N(C)CCCOc3ccc([N+](=O)[O-])cc3)cn2)c1",
    "pIC50": 5.59
  },
  {
    "molecule": "CN(CCCOc1ccc([N+](=O)[O-])cc1)C(=O)c1cnc(CC(=O)c2cccs2)nc1",
    "pIC50": 5.00
  },
  {
    "molecule": "COc1ccc(C(=O)Cc2ncc(C(=O)NCc3cccs3)cn2)cc1",
    "pIC50": 5.46
  },
  {
    "molecule": "COc1ccc(C(=O)Cc2ncc(C(=O)N(C)CCCOc3ccc(OC)c(OC)c3)cn2)cc1",
    "pIC50": 5.08
  },
  {
    "molecule": "COc1ccc(C(=O)Cc2ncc(C(=O)N(C)CCCOc3ccc([N+](=O)[O-])cc3)cn2)cc1",
    "pIC50": 4.88
  },
  {
    "molecule": "CN(CCCOc1ccc([N+](=O)[O-])cc1)C(=O)c1cnc(CC(=O)c2ccc3c(c2)OCO3)nc1",
    "pIC50": 4.32
  }
]

Let us move to another entry and its pIC50.
Quick check: pIC50 of `COc1ccc(C(=O)Cc2ncc(C(=O)N(C)CCCOc3ccc([N+](=O)[O-])cc3)cn2)cc1OC` ?
5.24

---

- target_desc: Acetylcholinesterase (Homo sapiens)
- Sequence (P22303 whole entry): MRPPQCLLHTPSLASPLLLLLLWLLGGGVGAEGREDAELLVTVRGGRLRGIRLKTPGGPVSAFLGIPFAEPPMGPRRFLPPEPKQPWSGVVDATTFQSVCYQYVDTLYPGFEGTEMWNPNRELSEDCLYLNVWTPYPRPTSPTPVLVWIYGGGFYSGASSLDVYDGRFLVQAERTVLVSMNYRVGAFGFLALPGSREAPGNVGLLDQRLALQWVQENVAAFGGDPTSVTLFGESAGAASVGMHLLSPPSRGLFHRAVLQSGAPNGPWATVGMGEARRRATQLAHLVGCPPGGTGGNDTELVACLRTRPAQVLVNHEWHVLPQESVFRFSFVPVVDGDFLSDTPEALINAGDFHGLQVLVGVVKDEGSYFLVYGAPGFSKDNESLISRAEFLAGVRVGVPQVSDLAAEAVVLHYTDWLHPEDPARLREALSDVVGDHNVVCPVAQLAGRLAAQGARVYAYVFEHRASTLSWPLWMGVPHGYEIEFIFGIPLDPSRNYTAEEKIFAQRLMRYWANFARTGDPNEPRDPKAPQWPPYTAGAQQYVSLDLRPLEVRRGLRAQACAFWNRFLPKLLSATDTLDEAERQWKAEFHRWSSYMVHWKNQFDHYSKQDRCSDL
recorded_endpoint: IC50
Record the result as a number with its unit.

[
  {
    "molecule": "COc1ccc(C(=O)Cc2ncc(C(=O)N(C)CCCOc3c(F)c(F)c(F)c(F)c3F)cn2)cc1",
    "target_desc": "Acetylcholinesterase (Homo sapiens)",
    "recorded_endpoint": "IC50",
    "result": "5.14 µM"
  },
  {
    "molecule": "COc1ccc(C(=O)Cc2ncc(C(=O)N(C)CCCOc3ccc([N+](=O)[O-])cc3)cn2)cc1OC",
    "target_desc": "Acetylcholinesterase (Homo sapiens)",
    "recorded_endpoint": "IC50",
    "result": "3.79 µM"
  },
  {
    "molecule": "COc1ccc(C(=O)Cc2ncc(C(=O)NCc3ccc(OC)c(OC)c3)cn2)cc1",
    "target_desc": "Acetylcholinesterase (Homo sapiens)",
    "recorded_endpoint": "IC50",
    "result": "10 µM"
  },
  {
    "molecule": "CN(CCCOc1ccc([N+](=O)[O-])cc1)C(=O)c1cnc(CC(=O)c2ccccc2)nc1",
    "target_desc": "Acetylcholinesterase (Homo sapiens)",
    "recorded_endpoint": "IC50",
    "result": "9.94 µM"
  },
  {
    "molecule": "COc1ccc(C(=O)Cc2ncc(C(=O)NC3CCN(Cc4ccccc4)CC3)cn2)cc1",
    "target_desc": "Acetylcholinesterase (Homo sapiens)",
    "recorded_endpoint": "IC50",
    "result": "28 µM"
  }
]

IC50 lookup needed for `COc1ccc(C(=O)Cc2ncc(C(=O)N(C)CCCOc3ccc(OC)c(OC)c3)cn2)cc1` , thanks.
29.8 µM

Tell me the measured IC50 of `COc1ccc(C(=O)Cc2ncc(C(=O)N3CCN(Cc4ccccc4)CC3)cn2)cc1` , please.
17.3 µM

Can you look up the measured IC50 of `CN(CCCOc1ccc([N+](=O)[O-])cc1)C(=O)c1cnc(CC(=O)c2ccc3c(c2)OCO3)nc1` for me?
0.99 µM

Given the compound `COc1ccc(C(=O)Cc2ncc(C(=O)NCc3cccs3)cn2)cc1` , what is its reported IC50?
30.7 µM

Data request, read-out IC50, for `CCOc1ccc(C(=O)Cc2ncc(C(=O)N(C)CCCOc3ccc([N+](=O)[O-])cc3)cn2)cc1`
6.4 µM

Any idea what its IC50 is? The compound is `COc1cccc(C(=O)Cc2ncc(C(=O)N(C)CCCOc3ccc([N+](=O)[O-])cc3)cn2)c1`
4 µM

I have this compound here, `COc1ccc(C(=O)Cc2ncc(C(=O)N(C)CCCOc3ccc([N+](=O)[O-])cc3)cn2)cc1` , and I need its recorded IC50.
4.56 µM

Fill in: IC50 of `CN(CCCOc1ccc([N+](=O)[O-])cc1)C(=O)c1cnc(CC(=O)c2cccs2)nc1` is ___
0.88 µM

For the compound `COc1ccc(C(=O)Cc2ncc(C(=O)N(C)CCCOc3cccc(OC)c3)cn2)cc1` , what IC50 is on record?
44.9 µM

---

- target_desc: Cholinesterase (Homo sapiens, UniProt P06276)
- Sequence (P06276 whole entry): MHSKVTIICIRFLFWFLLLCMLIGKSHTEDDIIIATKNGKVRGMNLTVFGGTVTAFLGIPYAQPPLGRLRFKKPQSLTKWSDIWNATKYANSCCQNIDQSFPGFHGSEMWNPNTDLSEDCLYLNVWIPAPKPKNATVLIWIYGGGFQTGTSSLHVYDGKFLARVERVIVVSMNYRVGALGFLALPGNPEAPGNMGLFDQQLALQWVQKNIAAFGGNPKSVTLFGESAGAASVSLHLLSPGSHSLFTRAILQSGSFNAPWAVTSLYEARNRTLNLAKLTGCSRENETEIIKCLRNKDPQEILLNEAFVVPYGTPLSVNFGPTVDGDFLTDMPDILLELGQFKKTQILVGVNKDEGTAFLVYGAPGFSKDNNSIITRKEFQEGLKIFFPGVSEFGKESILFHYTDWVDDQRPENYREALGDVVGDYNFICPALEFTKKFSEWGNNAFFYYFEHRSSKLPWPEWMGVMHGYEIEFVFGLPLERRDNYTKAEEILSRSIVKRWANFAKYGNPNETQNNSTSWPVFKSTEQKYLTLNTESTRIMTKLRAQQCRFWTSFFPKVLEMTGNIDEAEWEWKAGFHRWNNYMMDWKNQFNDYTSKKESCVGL
pIC50: −log10 of the molar value.
Entry flag: true (1) if pIC50 reaches 5; false (0) if it does not.

Decide: is the reported value of pIC50 for `C/C=C1\[C@H]2C=C(C)C[C@]1(N)c1ccc(=O)[nH]c1C2` equal to or greater than 5?
false (0)

Record `COc1ccc(C(=O)Cc2ncc(C(=O)N(C)CCCOc3c(F)c(F)c(F)c(F)c3F)cn2)cc1` ; criterion: pIC50 no lower than 5. Met?
false (0)

---

- target_desc: Acetylcholinesterase (Homo sapiens)
# Lookup of reported pIC50 keyed by entry
Remember the convention: pIC50 equals -log10 of concentration in molar.

Past entries and their recorded results:
[
  {
    "molecule": "COc1ccc(OCCCN(C)C(=O)c2cnc(CC(=O)c3ccc(OC)cc3)nc2)cc1",
    "target_desc": "Acetylcholinesterase (Homo sapiens)",
    "pIC50": 5.01
  },
  {
    "molecule": "COc1ccc(C(=O)Cc2ncc(C(=O)N(C)CCCOc3ccc(C(F)(F)F)cc3)cn2)cc1",
    "target_desc": "Acetylcholinesterase (Homo sapiens)",
    "pIC50": 4.53
  }
]

Short answer please: pIC50, Acetylcholinesterase (Homo sapiens), entry `COc1ccc(C(=O)Cc2ncc(C(=O)Nc3ccncc3)cn2)cc1`
4.75

---

# UniProtKB P06276: IC50 values follow
Give just the numeric value; µM need not be written.

Example entries and their recorded answers appear below.
[
  {
    "molecule": "COc1ccc(C(=O)Cc2ncc(C(=O)NCc3ccc(OC)c(OC)c3)cn2)cc1",
    "IC50 [µM]": 30.7
  },
  {
    "molecule": "COc1ccc(C(=O)Cc2ncc(C(=O)N3CCN(Cc4ccccc4)CC3)cn2)cc1",
    "IC50 [µM]": 5.7
  }
]

Item `COc1ccc(OCCCN(C)C(=O)c2cnc(CC(=O)c3ccc(OC)cc3)nc2)cc1` with UniProtKB P06276 - IC50?
9.16

Query the reported IC50 for UniProtKB P06276; item: `COc1ccc(C(=O)Cc2ncc(C(=O)NC3CCN(Cc4ccccc4)CC3)cn2)cc1`
3.7

API: value(readout=IC50, system=UniProtKB P06276) for record `CN(CCCOc1ccc([N+](=O)[O-])cc1)C(=O)c1cnc(CC(=O)c2ccccc2)nc1`
6.08

Test system UniProtKB P06276; read-out IC50; what value for `COc1ccc(C(=O)Cc2ncc(C(=O)N(C)CCCOc3ccc(C(F)(F)F)cc3)cn2)cc1` ?
6.24

Find IC50 (UniProtKB P06276) for the entry `CCOc1ccc(C(=O)Cc2ncc(C(=O)N(C)CCCOc3ccc([N+](=O)[O-])cc3)cn2)cc1`
6.66

Give recorded IC50 with UniProtKB P06276 for the following molecule: `COc1ccc(C(=O)Cc2ncc(C(=O)N(C)CCCOc3cccc(OC)c3)cn2)cc1`
8.36

For the record `COc1ccc(C(=O)Cc2ncc(C(=O)Nc3ccncc3)cn2)cc1` , what value of IC50 is listed for UniProtKB P06276?
31.4

Attribution: ChEMBL document CHEMBL5113467
